- System tested: isolated recombinant JAK2 kinase domain (Homo sapiens, UniProt O60674)
- Construct: The activity of the isolated recombinant JAK1 and JAK2 kinase domain was measured
- Sequence (O60674 849-1124 limits assumed): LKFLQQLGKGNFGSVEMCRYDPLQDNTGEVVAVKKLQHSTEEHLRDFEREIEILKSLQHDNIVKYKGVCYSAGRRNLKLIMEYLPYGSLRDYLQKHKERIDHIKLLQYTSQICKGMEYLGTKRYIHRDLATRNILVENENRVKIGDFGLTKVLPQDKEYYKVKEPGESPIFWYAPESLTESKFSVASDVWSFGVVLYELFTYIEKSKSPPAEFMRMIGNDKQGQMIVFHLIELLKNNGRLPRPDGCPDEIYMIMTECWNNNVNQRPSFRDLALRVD
- Protocol details: JAK2 enzyme assay (Caliper LabChip, Ki)
- Run conditions: 25 μM ATP
Exercise: for every item that follows, state its recorded Ki.
# include the unit after the value

Entry `CSc1ccc(OC(F)F)c(-c2nn(CC(=O)N3CCC(N(C)CC4(C)OCCO4)CC3)cc2NC(=O)c2cnn3cccnc23)c1` , Ki reported as 0.97 nM

Entry `CSc1ccc(OC(F)F)c(-c2nn(CCN[C@H]3CCOC3)cc2NC(=O)c2cnn3cccnc23)c1` , Ki reported as 0.27 nM

Entry `CC(C)Sc1ccc(OC(F)F)c(-c2nn(CC(=O)N3CCC(N4CCN(C5COC5)CC4)CC3)cc2NC(=O)c2cnn3cccnc23)c1` , Ki reported as 2.5 nM

Entry `CC(C)Sc1ccc(OC(F)F)c(-c2nn(CC(=O)N3CCC(N4CC5CC(C4)O5)CC3)cc2NC(=O)c2cnn3cccnc23)c1` , Ki reported as 1 nM
